experiment: SK-BR-3 cell growth inhibitors, pilot screen, 24 h, human (AID 572); settings: SK-BR-3 viability, CellTiter-Glo luminescence, at 10 µM, hits give low values;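 further: compound exposure lasted between 18 and 24 h rather than exactly 24 h; 100% = carrier-treated control wells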
QUANTITY_MEASURED: viability (%)
One number for each entry, in %.

Previously resolved entries follow.
Request: viability lookup needed for `COc1ccc(COC(=O)c2n[nH]c3ccccc23)cc1F` , thanks.
Result: 89

Request: Follow-up entry: `CCOc1ccc(OCC)c2sc(C)nc12`
Result: 107

Request: Okay, and `CCc1ccc2oc(-c3cc(N)ccc3Cl)nc2c1` ?
Result: 102

Request: Another: `O=C(Nc1ccc(N2CCOCC2)c(Cl)c1)c1ccc(Br)o1`
Result: 91

Request: Please answer likewise for `Cc1oc(-c2ccc(Cl)cc2)cc1-c1nn2c(-c3ccoc3C)nnc2s1`
Result: 86

For each entry beneath this line, provide reported viability.
1. CC(C)CN(C(=O)c1ccc(=O)n(C)n1)c1nc2ccccc2s1
2. COc1cc(NC(=O)CSCc2cnn(-c3ccccc3)c2-n2cccc2)cc(OC)c1
3. CC(N)C12CC3CC(C1)CC(C(C)N)(C3)C2 (stereo unspecified)
4. Cc1cc(=O)n2nc(N3CCCC(C(=O)N4CCc5ccccc54)C3)sc2n1 (stereo unspecified)
5. O=c1c2cnn(-c3ccccc3)c2ncn1/N=C/c1ccncc1

Result:
1: 94; 2: 103; 3: 87; 4: 82; 5: 125
